pIC50: −log10 of the molar value.
# pIC50 measurements, system: UniProtKB Q12809
# Sequence (Q12809 whole entry, looked up): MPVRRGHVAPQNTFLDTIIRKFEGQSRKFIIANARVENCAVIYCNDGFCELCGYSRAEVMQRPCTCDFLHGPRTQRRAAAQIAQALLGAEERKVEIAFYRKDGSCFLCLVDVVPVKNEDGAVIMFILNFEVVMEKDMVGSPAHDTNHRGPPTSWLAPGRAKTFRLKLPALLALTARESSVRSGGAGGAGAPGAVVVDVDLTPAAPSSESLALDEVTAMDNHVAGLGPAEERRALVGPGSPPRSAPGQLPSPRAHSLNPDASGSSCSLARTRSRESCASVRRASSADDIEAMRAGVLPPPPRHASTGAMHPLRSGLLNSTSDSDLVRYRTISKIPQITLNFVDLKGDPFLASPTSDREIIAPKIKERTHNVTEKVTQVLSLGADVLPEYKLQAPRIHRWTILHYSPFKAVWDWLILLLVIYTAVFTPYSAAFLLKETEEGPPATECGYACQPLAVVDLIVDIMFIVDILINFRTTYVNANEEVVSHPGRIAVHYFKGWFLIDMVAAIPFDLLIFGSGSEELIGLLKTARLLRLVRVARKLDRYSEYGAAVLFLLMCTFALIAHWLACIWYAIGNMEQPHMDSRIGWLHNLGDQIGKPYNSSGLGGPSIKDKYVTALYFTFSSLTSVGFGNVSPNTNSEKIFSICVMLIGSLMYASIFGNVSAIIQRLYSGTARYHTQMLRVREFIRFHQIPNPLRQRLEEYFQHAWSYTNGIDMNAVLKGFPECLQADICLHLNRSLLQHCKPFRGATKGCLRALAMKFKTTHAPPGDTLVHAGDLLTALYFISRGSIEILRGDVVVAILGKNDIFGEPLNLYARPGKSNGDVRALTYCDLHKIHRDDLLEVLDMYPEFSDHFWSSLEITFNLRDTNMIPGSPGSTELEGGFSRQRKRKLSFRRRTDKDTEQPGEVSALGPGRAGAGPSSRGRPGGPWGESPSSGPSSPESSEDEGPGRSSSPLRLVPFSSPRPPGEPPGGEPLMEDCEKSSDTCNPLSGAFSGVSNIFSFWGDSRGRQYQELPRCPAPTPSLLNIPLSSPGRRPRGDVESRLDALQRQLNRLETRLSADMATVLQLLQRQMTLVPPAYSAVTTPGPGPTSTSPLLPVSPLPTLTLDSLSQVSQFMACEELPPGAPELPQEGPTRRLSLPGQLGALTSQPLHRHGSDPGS

{"columns": ["compound", "pIC50"],
 "data": [
  ["C[C@H]([C@@H]1CC2CC[C@H]1C2)n1c(-c2ccsc2)n[nH]c1=S", 6.08],
  ["CC(C1CC2CCC1C2)n1c(SCCc2cccc(O)c2)nnc1-c1ccco1 (centres undefined)", 5.09],
  ["COc1cccc(-c2nnc(SSc3nnc(-c4cccc(OC)c4)n3C(C)C3CC4CCC3C4)n2C(C)C2CC3CCC2C3)c1 (centres undefined)", 6.40],
  ["COc1ccc(C(=O)CCSc2nnc(-c3ccco3)n2C(C)C2CC3CCC2C3)cc1OC (centres undefined)", 4.80],
  ["COc1cccc(CCSc2nnc(-c3ccco3)n2C(C)C2CC3CCC2C3)c1 (centres undefined)", 5.34],
  ["COc1ccc(CSc2nnc(-c3ccco3)n2C(C)C2CC3CCC2C3)cc1OC (centres undefined)", 4.74],
  ["COc1ccc(NC(=O)CSc2nnc(-c3ccco3)n2C(C)C2CC3CCC2C3)cc1OC (centres undefined)", 4.59],
  ["CC(C1CC2CCC1C2)n1c(SCCc2ccccn2)nnc1-c1ccco1 (centres undefined)", 4.90],
  ["CCCC(=O)C1CCN(c2ncnc3c2CN(C(=O)c2ccc(-c4ccccc4)cc2)CC3)CC1", 5.11]
]}
